Sourced from patent US20130251703A1

# SUBJECT OF TEST: human HER3 endogenously expressed on human cancer cells (SK-Br-3, BT-474, MCF7) (human, UniProt P21860 20-1342)
# PROCEDURE DETAILS: cell-based or functional assay
PROPERTY NAME: MCF7 pAkt IC50 (pM)
Quick note: give the figure in pM, leave out the unit.

Ask | MCF7 pAkt IC50 lookup needed for MOR13654 (antibody, human IgG1, lambda, V domains shown, Tested as IgG) VH: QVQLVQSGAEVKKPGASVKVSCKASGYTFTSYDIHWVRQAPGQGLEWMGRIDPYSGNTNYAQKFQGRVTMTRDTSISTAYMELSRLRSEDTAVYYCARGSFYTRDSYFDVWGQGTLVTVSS VL: DIALTQPASVSGSPGQSITISCTGTSSDVGTYNQVSWYQQHPGKAPKLMIYGVSKRPSGVSNRFSGSKSGNTASLTISGLQAEDEADYYCQSRGEYRPGWVFGGGTKLTVLG , thanks.
Reply | 244
